target: KRas-mediated phosphorylation of ERK in H358 cells (Homo sapiens, UniProt P01116, G12C); construct: pERK HTRF read-out; assay: Inhibition of KRas-mediated phosphorylation of ERK (HTRF), H358 cells; assay type: cell-based; conditions: HTRF pERK, 3 h incubation
Sequence (P01116 1-188 isoform P01116-2 G12C): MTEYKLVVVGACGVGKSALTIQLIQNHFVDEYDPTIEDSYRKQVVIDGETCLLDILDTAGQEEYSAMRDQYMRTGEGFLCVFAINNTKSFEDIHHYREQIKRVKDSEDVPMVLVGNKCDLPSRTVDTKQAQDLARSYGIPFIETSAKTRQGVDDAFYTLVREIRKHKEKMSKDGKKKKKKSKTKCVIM
parameterMeasured: IC50 (nM)

// below: answered molecules
>  <molecule>
CCc1c(F)ccc2cc(O)cc(-c3ncc4c(N5CCC(C(=O)n6cc(C)cn6)CC5)nc(OC[C@@]56CCCN5C[C@H](F)C6)nc4c3F)c12

>  <uom>
nM

>  <readoutNumber>
5580

$$$$
>  <molecule>
CCc1c(F)ccc2cc(O)cc(-c3ncc4c(N5CC[C@H]6[C@@H](C5)[C@H]6C(=O)n5ccc(C)n5)nc(OC[C@@]56CCCN5C[C@H](F)C6)nc4c3F)c12

>  <uom>
nM

>  <readoutNumber>
2350

$$$$
>  <molecule>
COC(=O)C1CCN(c2nc(OC[C@@]34CCCN3C[C@H](F)C4)nc3c(F)c(-c4ccc(F)c5sc(N)c(C#N)c45)c(Cl)cc23)CC1

>  <uom>
nM

>  <readoutNumber>
106

$$$$
>  <molecule>
CN(CCCC(=O)Oc1ccccc1)c1nc(OC[C@@]23CCCN2C[C@H](F)C3)nc2c(F)c(-c3ccc(F)c4sc(N)c(C#N)c34)c(Cl)cc12

>  <uom>
nM

>  <readoutNumber>
17

$$$$
>  <molecule>
CCc1c(F)ccc2cc(O)cc(-c3ncc4c(N(C)CCC(=O)n5ccc(C)n5)nc(OC[C@@]56CCCN5C[C@H](F)C6)nc4c3F)c12

>  <uom>
nM

>  <readoutNumber>
382

$$$$

[a] N#Cc1c(N)sc2c(F)ccc(-c3c(Cl)cc4c(N5CCCC(C(=O)n6cccn6)CC5)nc(OC[C@@]56CCCN5C[C@H](F)C6)nc4c3F)c12 (stereo partly shown)
[b] CN1CC2(CCN(c3nc(OC[C@@]45CCCN4C[C@H](F)C5)nc4c(F)c(-c5ccc(F)c6sc(N)c(C#N)c56)c(Cl)cc34)CC2)C1=O
### Prompt Name the one with the greater IC50 value, either a or b as given. Respond using the label that marks the chosen record.
### Response b

[a] Cc1ccn(C(=O)CCCCNc2nc(OC[C@@]34CCCN3C[C@H](F)C4)nc3c(F)c(-c4ccc(F)c5sc(N)c(C#N)c45)c(Cl)cc23)n1
[b] N#Cc1c(N)sc2c(F)ccc(-c3c(Cl)cc4c(N5CCC(C(=O)Oc6ccccc6F)CC5)nc(OC[C@@]56CCCN5C[C@H](F)C6)nc4c3F)c12
[c] CCc1c(F)ccc2cc(O)cc(N3CCc4c(nc(OC[C@@]56CCCN5C[C@H](F)C6)nc4N4CCCC(C(=O)n5ccc(C)n5)C4)C3)c12 (stereo partly shown)
### Prompt Please list the entries, largest IC50 first. Reply with the item labels sorted in the order that was asked for.
### Response a, c, b
(a: 1170 nM, c: 178 nM, b: 24 nM)

[P] Cc1ccn(C(=O)CCNc2cc(-c3noc4c3CCC[C@@]43CCCc4sc(N)c(C#N)c43)nc(N3CCNC[C@@H]3C)n2)n1
[Q] N#Cc1c(N)sc2c(F)ccc(-c3c(Cl)cc4c(N5CCC(C(=O)N6CCCC6)CC5)nc(OC[C@@]56CCCN5C[C@H](F)C6)nc4c3F)c12
[R] CCc1c(F)ccc2cc(O)cc(-c3ncc4c(N(C)CCCC(=O)N(C)C(C)=O)nc(OC[C@@]56CCCN5C[C@H](F)C6)nc4c3F)c12
[S] CN(CCN(C)c1nc(OC[C@@]23CCCN2C[C@H](F)C3)nc2c(F)c(-c3ccc(F)c4sc(N)c(C#N)c34)c(Cl)cc12)C(=O)n1ccnn1 (single isomer, unassigned)
[T] CC(=O)N(C)C(=O)[C@@H]1C[C@@H]2CN(c3nc(OC[C@@]45CCCN4C[C@H](F)C5)nc4c(F)c(-c5ccc(F)c6sc(N)c(C#N)c56)c(Cl)cc34)C[C@@H]2C1
### Prompt Please list the entries, largest IC50 first. Reply with the item labels sorted in the order that was asked for.
### Response P, R, Q, T, S
(P: 1060 nM, R: 485 nM, Q: 167 nM, T: 69 nM, S: 1 nM)

----------
target: KRas G12S (Homo sapiens, UniProt P01116, G12S); construct: Biotinylated KRas (corresponding to amino acids 1-169, produced at Accelegan Inc.); biotin (biotinylated); purchased Accelegan Inc; assay: KRas binding assay, TR-FRET displacement of Cy5 labelled tracer; conditions: 60-minute incubation at room temperature, 1% DMSO, pH 7.5
Sequence (P01116 1-169 isoform P01116-2 G12S): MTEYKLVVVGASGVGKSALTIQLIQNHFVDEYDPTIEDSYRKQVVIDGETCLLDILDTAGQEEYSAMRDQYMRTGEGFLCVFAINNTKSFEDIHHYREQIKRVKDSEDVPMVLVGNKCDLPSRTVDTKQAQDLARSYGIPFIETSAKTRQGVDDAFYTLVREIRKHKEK
parameterMeasured: IC50 (nM)

>  <compound>
Cc1ccn(C(=O)CCN(C)c2nc(OC[C@@]34CCCN3C[C@H](F)C4)nc3c(F)c(-c4ccc(F)c5sc(N)c(C#N)c45)c(Cl)cc23)n1 [Example 176]

>  <IC50, nM>
5

$$$$

[1] Cc1ccn(C(=O)CCNc2nc(OC[C@@]34CCCN3C[C@H](F)C4)nc3c(F)c(-c4ccc(F)c5sc(N)c(C#N)c45)c(Cl)cc23)n1 [Example 177]
[2] Cc1ccn(C(=O)[C@H]2CCN(c3nc(OC[C@@]45CCCN4C[C@H](F)C5)nc4c(F)c(-c5ccc(F)c6sc(N)c(C#N)c56)c(Cl)cc34)C[C@H]2C)n1 [Example 185]
[3] Cc1ccn(C(=O)CCCCNc2nc(OC[C@@]34CCCN3C[C@H](F)C4)nc3c(F)c(-c4ccc(F)c5sc(N)c(C#N)c45)c(Cl)cc23)n1 [Example 262]
### Prompt Order the entries by their reported IC50, beginning at the minimum. Reply with the item labels sorted in the order that was asked for.
### Response 1, 2, 3

----------
target: KRas-mediated phosphorylation of ERK in MKN1 cells (Homo sapiens, UniProt P01116); construct: pERK HTRF read-out; assay: Inhibition of KRas-mediated phosphorylation of ERK (HTRF), MKN1 cells; assay type: cell-based; settings: MKN1 cells (KRas WT); HTRF pERK; 3 h incubation
Sequence (P01116 1-188 isoform P01116-2): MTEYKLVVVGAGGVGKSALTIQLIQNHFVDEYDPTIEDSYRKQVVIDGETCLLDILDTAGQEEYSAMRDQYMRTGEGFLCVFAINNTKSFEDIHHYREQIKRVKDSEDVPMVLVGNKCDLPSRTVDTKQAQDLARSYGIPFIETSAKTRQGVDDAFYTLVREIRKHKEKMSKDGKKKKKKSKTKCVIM
parameterMeasured: IC50 (nM)

>  <molecule>
COCC(C)OC(=O)C1CCN(c2nc(OC[C@@]34CCCN3C[C@H](F)C4)nc3c(F)c(-c4ccc(F)c5sc(N)c(C#N)c45)c(Cl)cc23)CC1 (stereo partly drawn)

>  <readoutNumber>
44

$$$$

[a] CCc1c(F)ccc2cc(O)cc(N3CCc4c(nc(OC[C@@]56CCCN5C[C@H](F)C6)nc4N4CCCCC(C(=O)n5ccc(C)n5)CC4)C3)c12 (stereo partly drawn)
[b] CCc1c(F)ccc2cc(O)cc(-c3ncc4c(N5CCC(C(=O)n6cc(C(C)C)cn6)CC5)nc(OC[C@@]56CCCN5C[C@H](F)C6)nc4c3F)c12
[c] CN(CCCC(=O)Nc1ccncc1)c1nc(OC[C@@]23CCCN2C[C@H](F)C3)nc2c(F)c(-c3ccc(F)c4sc(N)c(C#N)c34)c(Cl)cc12
[d] CCc1c(F)ccc2cc(O)cc(-c3ncc4c(N(CC)CCCC(=O)n5ccc(C)n5)nc(OC[C@@]56CCCN5C[C@H](F)C6)nc4c3F)c12
[e] CCc1c(F)ccc2cc(O)cc(-c3ncc4c(N5CCC(C(=O)Oc6ccccc6)CC5)nc(OC[C@@]56CCCN5C[C@H](F)C6)nc4c3F)c12
### Prompt Please list the entries, largest IC50 first. Reply with the item labels sorted in the order that was asked for.
### Response b, d, e, c, a

----------
molecular target: KRas G12C (Homo sapiens, UniProt P01116, G12C); construct: Biotinylated KRas (corresponding to amino acids 1-169, produced at Accelegan Inc.); biotin (biotinylated); purchased Accelegan Inc; assay: KRas binding assay, TR-FRET displacement of Cy5 labelled tracer; conditions: 60-minute incubation at room temperature, 1% DMSO, pH 7.5
Sequence (P01116 1-169 isoform P01116-2 G12C): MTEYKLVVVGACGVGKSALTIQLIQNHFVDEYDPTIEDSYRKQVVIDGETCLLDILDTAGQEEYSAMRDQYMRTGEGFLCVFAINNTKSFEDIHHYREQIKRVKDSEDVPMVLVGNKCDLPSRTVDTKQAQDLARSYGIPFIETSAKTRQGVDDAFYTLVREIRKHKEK
parameterMeasured: IC50 (nM)

[I] CCc1c(F)ccc2cc(O)cc(-c3ncc4c(N5CC6CC(C(=O)N(C)C(C)=O)CC6C5)nc(OC[C@@]56CCCN5C[C@H](F)C6)nc4c3F)c12 (stereo partly drawn)
[II] CCc1c(F)ccc2cc(O)cc(-c3ncc4c(N5CCOCC(C(=O)n6ccc(C)n6)C5)nc(OC[C@@]56CCCN5C[C@H](F)C6)nc4c3F)c12 (stereo partly drawn)
[III] CCc1c(F)ccc2cc(O)cc(N3CCc4c(nc(OC[C@@]56CCCN5C[C@H](F)C6)nc4N4CCC(C(=O)n5ccc(C)n5)C4)C3)c12 (stereo partly drawn)
### Prompt Write the entries in order, lowest recorded IC50 first. Reply with the item labels sorted in the order that was asked for.
### Response III, II, I
(III: 21 nM, II: 159 nM, I: 334 nM)

----------
target: KRas WT (Homo sapiens); construct: Biotinylated KRas (corresponding to amino acids 1-169, produced at Accelegan Inc.); biotin (biotinylated); purchased Accelegan Inc; assay: KRas binding assay, TR-FRET displacement of Cy5 labelled tracer; details: 60-minute incubation at room temperature, 1% DMSO, pH 7.5
parameterMeasured: IC50 (nM)

// below: answered compounds
>  <compound>
CCc1c(F)ccc2cc(O)cc(-c3ncc4c(N5CCC(C(=O)N(C)C(=O)COC)CC5)nc(OC[C@@]56CCCN5C[C@H](F)C6)nc4c3F)c12 [Example 209]

>  <parameterMeasured>
IC50

>  <readoutNumber>
496

$$$$
>  <compound>
CCc1c(F)ccc2cc(O)cc(-c3ncc4c(N5CCC(C(=O)n6nc(C)c(C)c6C)CC5)nc(OC[C@@]56CCCN5C[C@H](F)C6)nc4c3F)c12 [Example 73]

>  <parameterMeasured>
IC50

>  <readoutNumber>
1080

$$$$
>  <compound>
CC(=O)N(C)C(=O)[C@@H]1C[C@@H]2CN(c3nc(OC[C@@]45CCCN4C[C@H](F)C5)nc4c(F)c(-c5ccc(F)c6sc(N)c(C#N)c56)c(Cl)cc34)C[C@@H]2C1 [Example 237]

>  <parameterMeasured>
IC50

>  <readoutNumber>
15

$$$$

[P] O=C(Oc1ccc(F)cc1F)C1CCN(c2nc(OCC34CCCN3CCC4)nc3c(F)c(-c4cccc5cccc(F)c45)ncc23)CC1 [Example 13]
[Q] CCc1c(F)ccc2cc(O)cc(-c3ncc4c(N5CCCC(C(=O)n6ccc(C)n6)CC5)nc(OC[C@@H]5CCCN5C)nc4c3F)c12 (stereo partly drawn) [Example 168]
[R] CN(C)C(=O)N(C)C(=O)CCCN(C)c1nc(OC[C@@]23CCCN2C[C@H](F)C3)nc2c(F)c(-c3ccc(F)c4sc(N)c(C#N)c34)c(Cl)cc12 [Example 239]
### Prompt Order the entries by their reported IC50, beginning at the minimum. Reply with the item labels sorted in the order that was asked for.
### Response R, Q, P

Hello, the source for this data is patent US20260356856A1, in case you need it.
